TEST_SYSTEM: sGC α1/β1 heterodimer (Homo sapiens (Human), UniProt Q02108+Q02153)
Sequence (Q02108 whole entry): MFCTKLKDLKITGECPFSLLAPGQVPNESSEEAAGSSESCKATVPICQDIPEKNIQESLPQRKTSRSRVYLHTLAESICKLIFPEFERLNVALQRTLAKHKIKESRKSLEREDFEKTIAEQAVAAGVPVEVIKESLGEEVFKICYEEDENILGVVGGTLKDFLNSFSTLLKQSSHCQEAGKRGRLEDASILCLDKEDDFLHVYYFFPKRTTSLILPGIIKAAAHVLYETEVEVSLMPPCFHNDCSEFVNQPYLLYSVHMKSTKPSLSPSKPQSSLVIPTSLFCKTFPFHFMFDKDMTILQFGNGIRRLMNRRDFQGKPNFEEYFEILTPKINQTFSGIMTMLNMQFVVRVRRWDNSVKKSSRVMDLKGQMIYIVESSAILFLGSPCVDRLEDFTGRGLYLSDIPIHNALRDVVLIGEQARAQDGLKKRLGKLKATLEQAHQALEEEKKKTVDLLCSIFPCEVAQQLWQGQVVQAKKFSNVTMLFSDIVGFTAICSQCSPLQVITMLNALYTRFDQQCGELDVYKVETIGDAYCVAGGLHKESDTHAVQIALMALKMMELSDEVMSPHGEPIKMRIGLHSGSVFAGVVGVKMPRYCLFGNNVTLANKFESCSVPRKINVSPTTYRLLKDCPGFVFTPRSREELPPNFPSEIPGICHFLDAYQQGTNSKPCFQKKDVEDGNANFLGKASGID
Sequence (Q02153 whole entry): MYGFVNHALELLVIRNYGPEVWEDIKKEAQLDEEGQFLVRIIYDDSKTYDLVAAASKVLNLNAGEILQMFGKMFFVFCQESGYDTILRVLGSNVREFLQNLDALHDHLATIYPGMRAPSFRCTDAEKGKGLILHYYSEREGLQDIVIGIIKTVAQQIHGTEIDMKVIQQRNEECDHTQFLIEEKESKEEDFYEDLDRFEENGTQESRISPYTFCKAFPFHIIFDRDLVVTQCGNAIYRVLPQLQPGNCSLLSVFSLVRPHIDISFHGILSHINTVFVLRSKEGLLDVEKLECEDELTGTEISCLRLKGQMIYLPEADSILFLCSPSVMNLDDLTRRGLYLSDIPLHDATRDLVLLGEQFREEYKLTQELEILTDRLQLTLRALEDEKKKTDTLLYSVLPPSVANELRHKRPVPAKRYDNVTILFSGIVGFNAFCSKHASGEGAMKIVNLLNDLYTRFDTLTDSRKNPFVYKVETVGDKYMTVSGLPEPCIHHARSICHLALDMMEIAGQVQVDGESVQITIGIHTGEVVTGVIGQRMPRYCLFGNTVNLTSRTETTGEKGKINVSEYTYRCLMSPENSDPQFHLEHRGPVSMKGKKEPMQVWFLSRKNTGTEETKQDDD
TEST: Cell-based sGC functional assay (cyclic GMP assay for sGC activator: CASA assay)
RECORDED_CONDITIONS: inflection point, 4P fit; CHO-K1/sGC cells; read-out: IP
Please go through the items and note down their EC50.
Please give a number only; it is taken to be in µM.

Q: Give the value of EC50 reported for the following: CC(C)(Cc1csc([C@]2(C)C(=O)Nc3nc(-c4nn(CCC(F)(F)C(F)(F)F)c5cc(Cl)ccc45)nc(N)c32)n1)C(=O)O [Example 92B]
Result: 0.219

Q: Give the value of EC50 reported for the following: Cc1ccnc(Cn2nc(-c3nc(N)c4c(n3)NC(=O)[C@@]4(C)c3nc(CC(C)(C)C(=O)O)cs3)c3ccc(Cl)cc32)c1F [Example 216A]
Result: 0.678

Q: Give the value of EC50 reported for the following: CCCCn1nc(-c2nc(N)c3c(n2)NC(=O)C3(C)c2nc(CC(C)(C)C(=O)O)cs2)c2cccnc21 (stereo not drawn) [Example 86A]
Result: 0.247

Q: Give the value of EC50 reported for the following: CC(C)(CCc1coc(C2(C)C(=O)Nc3nc(-c4nn(Cc5ccccc5F)c5cc(Cl)ccc45)nc(N)c32)n1)C(=O)O (stereo not drawn) [Example 167B]
Result: 0.093

Q: Give the value of EC50 reported for the following: Cc1ccccc1Cn1nc(-c2nc(N)c3c(n2)NC(=O)[C@@]3(C)c2ccc(CCC(=O)O)cc2)c2ccc(Cl)cc21 [Example 68B]
Result: 0.568

Q: Give the value of EC50 reported for the following: CC(C)(Cc1csc([C@]2(C)C(=O)Nc3nc(-c4nn(Cc5cccc(F)c5F)c5cc(F)ccc45)nc(N)c32)n1)C(=O)O [Example 199A]
Result: 0.066

Q: Give the value of EC50 reported for the following: CC(C)(CCc1csc(C2(C)C(=O)Nc3nc(-c4nn(Cc5cccc(F)c5)c5cc(F)ccc45)nc(N)c32)n1)C(=O)O (stereo not drawn) [Example 196A]
Result: 0.054

Q: Give the value of EC50 reported for the following: CC(C)(Cc1csc([C@]2(C)C(=O)Nc3nc(-c4nn(CCCC(F)(F)F)c5ncccc45)nc(N)c32)n1)C(=O)O [Example 87B]
Result: 0.547

Q: Give the value of EC50 reported for the following: CC1(c2nc(-c3cccc(C(=O)O)c3)cs2)C(=O)Nc2nc(-c3nn(CCC(F)(F)C(F)(F)F)c4cc(Cl)ccc34)nc(N)c21 (stereo not drawn) [Example 93A]
Result: 0.575

Q: Give the value of EC50 reported for the following: C[C@@]1(c2ccc(CCC(=O)O)cc2)C(=O)Nc2nc(-c3nn(CCCC(F)(F)F)c4ncccc34)nc(N)c21 [Example 15B]
Result: 1.32

Q: Give the value of EC50 reported for the following: CC1(c2nc(-c3ccc(C(=O)O)cc3)cs2)C(=O)Nc2nc(-c3nn(CCC(F)(F)C(F)(F)F)c4cc(Cl)ccc34)nc(N)c21 (stereo not drawn) [Example 156A]
Result: 0.161

Q: Give the value of EC50 reported for the following: Nc1nc(-c2nn(Cc3ccccc3F)c3ncccc23)nc2c1C(c1ccc(CCC(=O)O)cc1)(C1CC1)C(=O)N2 (stereo not drawn) [Example 148A]
Result: 0.238

----------
Please go through the items and note down their Emax.
TEST_SYSTEM: sGC α1/β1 heterodimer (Homo sapiens (Human), UniProt Q02108+Q02153)
TEST: Cell-based sGC functional assay (cyclic GMP assay for sGC activator: CASA assay)
RECORDED_CONDITIONS: CHO-K1, activity expressed as percentage of compound A (standard); CHO-K1/sGC cells; read-out: % Activation
Please give a number only; it is taken to be in %.

Q: Give the value of Emax reported for the following: CC1(c2nc(CCCC(=O)O)cs2)C(=O)Nc2nc(-c3nn(Cc4ccccc4F)c4ccccc34)nc(N)c21 (stereo not drawn) [Example 55A]
Result: 105

Q: Give the value of Emax reported for the following: CC(C)(Cc1csc([C@]2(C)C(=O)Nc3nc(-c4nn(CC5CCCCC5)c5cc(F)ccc45)nc(N)c32)n1)C(=O)O [Example 201A]
Result: 91.2

Q: Give the value of Emax reported for the following: CC1(c2cn(CCC(=O)O)nn2)C(=O)Nc2nc(-c3nn(CCC(F)(F)C(F)(F)F)c4ncccc34)nc(N)c21 (stereo not drawn) [Example 12B]
Result: 81

Q: Give the value of Emax reported for the following: C[C@@]1(c2nc(CC3(C(=O)O)CC3)cs2)C(=O)Nc2nc(-c3nn(CCC(F)(F)C(F)(F)F)c4ncccc34)nc(N)c21 [Example 81B]
Result: 110

Q: Give the value of Emax reported for the following: Cc1ccc2c(-c3nc(N)c4c(n3)NC(=O)[C@@]4(C)c3nc(CC(C)(C)C(=O)O)cs3)nn(Cc3ccc(C)c(F)c3F)c2n1 [Example 75A]
Result: 155

Q: Give the value of Emax reported for the following: CC1CCC(Cn2nc(-c3nc(N)c4c(n3)NC(=O)C4(C)c3nc(CC(C)(C)C(=O)O)co3)c3ccc(Cl)cc32)CC1 (single isomer, unassigned) [Example 132AA]
Result: 109

Q: Give the value of Emax reported for the following: C[C@@]1(c2ccc(CCC(=O)O)cc2)C(=O)Nc2nc(-c3nn(CCC(F)(F)C(F)(F)F)c4cc(Cl)ccc34)nc(N)c21 [Example 10B]
Result: 117

Q: Give the value of Emax reported for the following: CC(C)(Cc1csc([C@]2(C)C(=O)Nc3nc(-c4nn(Cc5cccc(F)c5)c5ccccc45)nc(N)c32)n1)C(=O)O [Example 222A]
Result: 105

Q: Give the value of Emax reported for the following: CC(C)(Cc1csc([C@]2(C)C(=O)Nc3nc(-c4nn(Cc5c(F)cccc5F)c5cc(Cl)ccc45)nc(N)c32)n1)C(=O)O [Example 183A]
Result: 111
